// data source = ChEMBL document CHEMBL3877278

# Test: Antiproliferative activity against 3D culture of human MDA-MB-231 cells after 72 hrs MTS assay
# Type: functional, cell-based
# Condition Info: MDA-MB-231, 72 h
Can you tell me IC50 for the items I'm about to list?

State the recorded IC50 for this entry: N#Cc1c(=O)c2sc3ccccc3c2n2c1[nH]c1ccccc12
> 30 µM

Which IC50 value belongs to CC(C)CNc1c(C#N)c2nc3ccccc3n2c2ccccc12 ?
> 30 µM

Entry under review: N#Cc1c(N2CCCCC2)c2sc3cc(N4CCCCC4)ccc3c2n2c1nc1ccccc12 . Reported IC50?
> 30 µM

Returns the measured IC50 for the input molecule. Input: N#Cc1cc2sc3cc(F)ccc3c2n2c1nc1ccccc12
> 30 µM

Param item = N#Cc1c(N2CCNCC2)c2sc3cc(N4CCNCC4)ccc3c2n2c1nc1ccccc12 ; retrieve measured IC50.
17 µM

For the molecule shown here, CN(C)CCCNc1ccc2c(c1)sc1cc(C#N)c3nc4ccccc4n3c12 , give the reported IC50.
5 µM

Which IC50 is reported for this molecule? CN(C)CCCNc1c(C#N)c2nc3ccccc3n2c2c1sc1ccccc12
4 µM

Suppose we examine the molecule CC(C)CNc1c(C#N)c2nc3ccccc3n2c2c1sc1ccccc12 ; what IC50 value has been reported?
> 30 µM

Give one value of IC50 per listed molecule.
1. CC(C)CNc1ccc2cc(C#N)c3nc4ccccc4n3c2c1
2. N#Cc1c(N2CCNCC2)c2sc3ccccc3c2n2c1nc1ccccc12
3. N#Cc1c(N2CCNCC2)c2ccc(N3CCNCC3)cc2n2c1nc1ccccc12

1: > 30 µM; 2: 5 µM; 3: 9 µM

====

# Test: Antiproliferative activity against 2D culture of human T47D cells after 72 hrs MTS assay
# Format: functional, cell-based
For each entry below, report its IC50 value.
Numbers only, in µM.

Reference set, count: 6
Need IC50, item N#Cc1c(N2CCNCC2)c2sc3cc(N4CCNCC4)ccc3c2n2c1nc1ccccc12
12

I'd like to know its IC50. The compound in question is CC(C)CNc1c(C#N)c2nc3ccccc3n2c2c1sc1ccccc12
5

Would you mind telling me what IC50 value was observed for N#Cc1c(Cl)c2ccc(F)cc2n2c1nc1ccccc12 ?
2

Fill blank: measured IC50 of the compound N#Cc1c(Cl)c2ccccc2n2c1nc1ccccc12 is ____.
1

# lookup: IC50 of N#Cc1c(N2CCNCC2)c2ccc(N3CCNCC3)cc2n2c1nc1ccccc12
5

What value of IC50 has been reported for the following compound? CC(C)CNc1ccc2c(NCC(C)C)c(C#N)c3nc4ccccc4n3c2c1
12

Continuing:
What value of IC50 has been reported for the following compound? N#Cc1cc2sc3cc(F)ccc3c2n2c1nc1ccccc12
1

====

# Test: Antiproliferative activity against 3D culture of human MDA-MB-231 cells after 72 hrs MTS assay
# Format: functional, cell-based
# Condition Info: MDA-MB-231, 72 h
Measure: IC50

# count of solved cases: 5
Give its IC50 value. Item: N#Cc1cc2ccc(N3CCCCC3)cc2n2c1nc1ccccc12
> 30 µM

Param item = N#Cc1c(Cl)c2sc3cc(F)ccc3c2n2c1nc1ccccc12 ; retrieve measured IC50.
> 30 µM

For the compound shown here, CC(C)CNc1ccc2c(c1)sc1cc(C#N)c3nc4ccccc4n3c12 , give the reported IC50.
> 30 µM

Entry N#Cc1c(N2CCCCC2)c2sc3ccccc3c2n2c1nc1ccccc12 : reported IC50 = ?
> 30 µM

For the compound N#Cc1cc2sc3cc(N4CCCCC4)ccc3c2n2c1nc1ccccc12 , what IC50 is on record?
> 30 µM

Report IC50 for every entry below.
1. N#Cc1cc2ccc(F)cc2n2c1nc1ccccc12
2. CN(C)CCCNc1ccc2cc(C#N)c3nc4ccccc4n3c2c1

1. > 30 µM
2. 11 µM

# batch size: 7; output IC50 per entry
1. N#Cc1c(Cl)c2sc3ccccc3c2n2c1nc1ccccc12
2. N#Cc1c(N2CCNCC2)c2ccccc2n2c1nc1ccccc12
3. CC(C)CNc1ccc2c(c1)sc1c(NCC(C)C)c(C#N)c3nc4ccccc4n3c12
4. N#Cc1cc2sc3cc(N4CCNCC4)ccc3c2n2c1nc1ccccc12
5. N#CC1C(=O)c2ccc(F)cc2-n2c1nc1ccccc12 (stereo unspecified)
6. N#Cc1cc2ccc(N3CCNCC3)cc2n2c1nc1ccccc12
7. N#CC1C(=O)c2ccccc2-n2c1nc1ccccc12 (stereo unspecified)

1: > 30 µM; 2: 7 µM; 3: > 30 µM; 4: 19 µM; 5: > 30 µM; 6: 5 µM; 7: > 30 µM

Could I get IC50 for every one of these entries?
1. N#Cc1c(Cl)c2ccc(F)cc2n2c1nc1ccccc12
2. CC(C)CNc1ccc2c(NCC(C)C)c(C#N)c3nc4ccccc4n3c2c1
3. N#Cc1c(N2CCCCC2)c2ccccc2n2c1nc1ccccc12
4. N#Cc1c(Cl)c2ccccc2n2c1nc1ccccc12
5. N#Cc1c(=O)c2sc3cc(F)ccc3c2n2c1[nH]c1ccccc12
6. N#Cc1c(N2CCCCC2)c2ccc(N3CCCCC3)cc2n2c1nc1ccccc12
7. CN(C)CCCNc1c(C#N)c2nc3ccccc3n2c2ccccc12

["> 30 µM", "> 30 µM", "3 µM", "> 30 µM", "> 30 µM", "> 30 µM", "7 µM"]
